- MEASUREMENT_NOTES: Stability assessment of test compounds in aqueous buffers (half-lives)
- RECORDED_CONDITIONS: buffer, pH 10.2, half-lives t 1/2 ± s(t 1/2), PPB (phosphate buffer 80 mM) pH 10.2
OBSERVED_PROPERTY: half-life

Some solved entries appear below for comparison.
{"COMPOUND": "O=[N+]([O-])c1ccc(F)c([N+](=O)[O-])c1", "OBSERVED_PROPERTY": "half-life", "VAL": "615 min"}
{"COMPOUND": "O=C1C=CC(=O)O1 [C4, maleic anhydride]", "OBSERVED_PROPERTY": "half-life", "VAL": "2.7 min"}
{"COMPOUND": "O=C=Nc1ccccc1 [A5, phenyl isocyanate]", "OBSERVED_PROPERTY": "half-life", "VAL": "< 1 min"}
{"COMPOUND": "O=C1OC2(c3ccc(O)cc3Oc3cc(O)ccc32)c2ccc(N=C=S)cc21 [B3, fluorescein isothiocyanate]", "OBSERVED_PROPERTY": "half-life", "VAL": "3500 min"}

Moving on to another compound below.
Entry O=C=Nc1cccc2c(N=C=O)cccc12 [A2, 1,5-naphthalene diisocyanate] needs its half-life filled in; supply it.
2.6 min
